experiment: recombinant UMI read abundance after kanamycin selection (control-corrected) (log10(CPM+1)); higher = more efficient recombination; extreme values may be limits of the assay; sequences stand for … in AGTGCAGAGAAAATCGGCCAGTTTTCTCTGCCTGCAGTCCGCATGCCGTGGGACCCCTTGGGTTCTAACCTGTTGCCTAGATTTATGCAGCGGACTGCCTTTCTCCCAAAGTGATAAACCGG…AGGTTGGTTTCACT; site = the 11-nt donor;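 note: IS621 bridge recombinase in Escherichia coli cells against a fixed T5 target plasmid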
Readout Label: recombinant UMI read abundance (log10)

Completed entries (count: 5):
# Sequence Code, recombinant UMI read abundance (log10)
rows = [
    ("AAATGGGCATGGACCGGTTTTCCCGGTAATCCGTATTTGCT (site AAATGGGCTAG)", 2.28),
    ("GTCCACCCATGGACCGGTTTTCCCGGTAATCCGTATTTGTT (site GGCCACCCTAA)", 0.0212),
    ("GGTCCGTCATGGACCGGTTTTCCCGGTAATCCGTATTTGTT (site GGTTCGTCTAA)", 0.0141),
    ("AGGTTACCATGGACCGGTTTTCCCGGTAATCCGTATTTGTG (site AGGTTGCCTCA)", 0.00949),
    ("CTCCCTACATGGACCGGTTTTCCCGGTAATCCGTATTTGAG (site CTCCCTACTTT)", 0.0136),
]

Req: Query (sequence): CCTAATACATGGACCGGTTTTCCCGGTAATCCGTATTTGGA (site CCTAATACTGC) ; field requested: recombinant UMI read abundance (log10)
Resp: 0

Req: Consider the sequence GGGACGTCATGGACCGGTTTTCCCGGTAATCCGTATTTGTT (site GGCACGTCTAA) and give its measured recombinant UMI read abundance (log10).
Resp: 0.0541

Req: What value of recombinant UMI read abundance (log10) has been recorded for this entry: TAGAATTCATGGACCGGTTTTCCCGGTAATCCGTATTTGCA (site TAGAATTCTTG)
Resp: 1.53

Req: Dear colleague, I am looking for the recorded recombinant UMI read abundance (log10) of the following sequence: ACATCTTCATGGACCGGTTTTCCCGGTAATCCGTATTTGTG (site ACATCTGCTCA)
Resp: 0
